IC50, VEGFR-1 (Homo sapiens (Human), UniProt P17948), per-entry values.
assay.metric: IC50

> print(dat)
                                   compound  assay.metric     result
1  CCC(NC(=O)c1ccc(C2CC2)c(-c2ccc3nc(Nc4cnn(C5CC5)c4)ncc3c2)c1)c1cccc(C(F)(F)F)c1 (centres unmarked)          IC50  > 1000 nM
2  O=C(Nc1cccc(C(F)(F)F)c1)c1ccc(C2CC2)c(-c2ccc3nc(Nc4cnn(C5CC5)c4)ncc3c2)c1          IC50  > 1000 nM

###

Measured pIC50, listed per entry.
# tgt: UniProt Q9UM73
# Sequence (Q9UM73 19-1620, species assumed): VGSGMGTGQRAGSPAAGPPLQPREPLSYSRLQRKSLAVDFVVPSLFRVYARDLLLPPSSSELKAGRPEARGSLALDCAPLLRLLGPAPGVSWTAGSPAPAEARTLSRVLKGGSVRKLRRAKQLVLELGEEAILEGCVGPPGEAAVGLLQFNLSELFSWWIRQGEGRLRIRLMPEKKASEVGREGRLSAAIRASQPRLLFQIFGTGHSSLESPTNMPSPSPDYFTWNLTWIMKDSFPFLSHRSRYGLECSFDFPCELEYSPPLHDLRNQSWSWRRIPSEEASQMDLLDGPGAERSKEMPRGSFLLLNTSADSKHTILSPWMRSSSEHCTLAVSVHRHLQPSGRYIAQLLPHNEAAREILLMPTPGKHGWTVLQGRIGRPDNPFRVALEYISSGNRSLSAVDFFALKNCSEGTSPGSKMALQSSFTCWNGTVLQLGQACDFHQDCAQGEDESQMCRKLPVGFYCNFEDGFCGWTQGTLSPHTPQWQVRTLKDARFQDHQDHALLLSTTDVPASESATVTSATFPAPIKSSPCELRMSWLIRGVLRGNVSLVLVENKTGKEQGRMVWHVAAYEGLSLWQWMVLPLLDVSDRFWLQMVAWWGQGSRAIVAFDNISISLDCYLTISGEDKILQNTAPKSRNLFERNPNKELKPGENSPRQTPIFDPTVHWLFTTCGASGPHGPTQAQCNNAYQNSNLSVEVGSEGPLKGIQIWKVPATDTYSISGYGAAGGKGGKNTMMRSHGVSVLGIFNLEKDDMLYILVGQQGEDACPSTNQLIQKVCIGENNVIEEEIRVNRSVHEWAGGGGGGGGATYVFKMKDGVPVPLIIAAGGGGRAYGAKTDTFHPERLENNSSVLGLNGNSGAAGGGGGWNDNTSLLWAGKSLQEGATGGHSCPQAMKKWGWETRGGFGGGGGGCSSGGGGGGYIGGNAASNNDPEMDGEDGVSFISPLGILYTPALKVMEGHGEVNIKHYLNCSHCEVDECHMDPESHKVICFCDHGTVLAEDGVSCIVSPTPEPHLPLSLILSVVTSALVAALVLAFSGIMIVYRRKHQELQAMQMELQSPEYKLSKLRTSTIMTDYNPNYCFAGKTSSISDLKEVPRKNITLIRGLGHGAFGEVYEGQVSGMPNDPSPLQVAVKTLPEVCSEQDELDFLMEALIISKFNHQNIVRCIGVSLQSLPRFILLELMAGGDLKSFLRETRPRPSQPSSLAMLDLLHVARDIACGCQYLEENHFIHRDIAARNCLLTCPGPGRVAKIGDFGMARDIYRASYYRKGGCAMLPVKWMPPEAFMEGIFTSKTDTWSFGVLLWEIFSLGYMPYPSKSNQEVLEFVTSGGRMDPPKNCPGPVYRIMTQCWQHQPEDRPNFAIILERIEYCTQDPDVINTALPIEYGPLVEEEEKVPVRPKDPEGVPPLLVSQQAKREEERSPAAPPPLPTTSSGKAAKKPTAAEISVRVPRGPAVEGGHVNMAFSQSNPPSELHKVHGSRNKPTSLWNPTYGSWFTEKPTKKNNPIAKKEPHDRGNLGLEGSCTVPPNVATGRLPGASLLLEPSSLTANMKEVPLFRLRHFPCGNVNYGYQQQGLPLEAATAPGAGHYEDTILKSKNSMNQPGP
pIC50: −log10 of the molar value.
assay.metric: pIC50

> print(dat)
                                   compound  assay.metric  result
1  CC(NC(=O)c1ccc(C2CC2)c(-c2ccc3nc(Nc4cnn(C5CC5)c4)ncc3c2)c1)c1cccc(C(F)(F)F)c1 (stereo not drawn) [Compound S16]         pIC50  < 6.00
2  CCC(NC(=O)c1ccc(C2CC2)c(-c2ccc3nc(Nc4cnn(C5CC5)c4)ncc3c2)c1)c1cccc(C(F)(F)F)c1 (stereo not drawn) [Compound S18]         pIC50  < 6.00
3  O=C(Nc1cccc(C(F)(F)F)c1)c1ccc(C2CC2)c(-c2ccc3nc(Nc4cnn(C5CC5)c4)ncc3c2)c1 [Compound S15]         pIC50  < 6.00
